The origin of these recorded values is the MegaScale stability set (Tsuboyama et al. 2023).

B1: EHEE_rd2_1257 (parent)
chain: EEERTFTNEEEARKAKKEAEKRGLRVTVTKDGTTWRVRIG

# Variants of: B1
# assay-comment: folding stability dG (cDNA display proteolysis); higher = more stable
# assay-context: PBS, room temperature
List of folding stability dG values.
Give just the numeric value; kJ/mol need not be written.

These recorded examples may help you get a feel for the data.
variant-label	folding stability dG / kJ/mol
T33K	8.57
A19C	8.49

Alright, here's another variant for you.
Prompt: Need folding stability dG of E10M , thanks.
Response: 8.47
